Where these numbers come from: ChEMBL document CHEMBL1138926

molecular target: Adenosine receptor A3 (Homo sapiens); test: Displacement of [3H]NECA from human adenosine A3 receptor expressed in HeLa cells
Sequence (P0DMS8 whole entry): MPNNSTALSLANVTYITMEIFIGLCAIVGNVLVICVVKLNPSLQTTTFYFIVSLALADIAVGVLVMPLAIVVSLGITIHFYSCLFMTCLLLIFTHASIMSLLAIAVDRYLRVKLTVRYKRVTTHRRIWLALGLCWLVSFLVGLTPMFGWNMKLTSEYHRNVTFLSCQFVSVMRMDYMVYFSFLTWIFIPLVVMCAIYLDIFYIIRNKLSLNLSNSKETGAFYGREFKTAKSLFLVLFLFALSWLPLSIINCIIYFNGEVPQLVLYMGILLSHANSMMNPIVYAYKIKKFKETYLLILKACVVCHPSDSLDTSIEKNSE
Readout kind: IC50 (µM)

Illustrative cases are given below, each with its answer.
>>> endpoint_value("CCCn1c(=O)c2[nH]c(-c3ccc(S(=O)(=O)NC4CCN(Cc5ccccc5)CC4)cc3)cc2n(CCC)c1=O")
1.47
>>> endpoint_value("CCn1c(=O)c2[nH]c(-c3ccc(S(=O)(=O)N4CCN(Cc5cccc(F)c5)CC4)cc3)cc2n(CC)c1=O")
21.9
>>> endpoint_value("Cn1c(=O)c2[nH]c(-c3ccc(S(=O)(=O)NCCc4ccccn4)cc3)cc2n(C)c1=O")
2.08
>>> endpoint_value("Cn1c(=O)c2[nH]c(-c3ccc(S(=O)(=O)N4CCN(Cc5cccc(F)c5)CC4)cc3)cc2n(C)c1=O")
8.89
>>> endpoint_value("COc1ccc(CNS(=O)(=O)c2ccc(-c3cc4c([nH]3)c(=O)n(C)c(=O)n4C)cc2)nc1")
38
>>> endpoint_value("CCCn1c(=O)c2[nH]c(-c3ccc(S(=O)(=O)NCCc4ccccn4)cc3)cc2n(C)c1=O")
0.844
>>> endpoint_value("CCCn1c(=O)c2[nH]c(-c3ccc(S(=O)(=O)N4CCN(Cc5ccc(C#N)cc5)CC4)cc3)cc2n(C)c1=O")
0.95
>>> endpoint_value("CCn1c(=O)c2[nH]c(-c3ccc(S(=O)(=O)NCCc4ccccn4)cc3)cc2n(CC)c1=O")
18.9
>>> endpoint_value("Cn1c(=O)c2[nH]c(-c3ccc(S(=O)(=O)Nc4ccccn4)cc3)cc2n(C)c1=O")
1.32
>>> endpoint_value("Cn1c(=O)c2[nH]c(-c3ccc(S(=O)(=O)NCCOc4ccccn4)cc3)cc2n(C)c1=O")
6.44

I = Cn1c(=O)c2[nH]c(-c3ccc(S(=O)(=O)N4CCN(Cc5ccccc5)CC4)cc3)cc2n(C)c1=O
II = CCCn1c(=O)n(C)c(=O)c2[nH]c(-c3ccc(S(=O)(=O)N4CCN(Cc5ccc6c(c5)OCO6)CC4)cc3)cc21
III = COc1ccc(NS(=O)(=O)c2ccc(-c3cc4c([nH]3)c(=O)n(C)c(=O)n4C)cc2)cn1
IV = CCCn1c(=O)c2[nH]c(-c3ccc(S(=O)(=O)NCc4ccc(OC)cn4)cc3)cc2n(C)c1=O
V = Cn1c(=O)c2[nH]c(-c3ccc(S(=O)(=O)N4CCN(Cc5ccc(Cl)s5)CC4)cc3)cc2n(C)c1=O
Put these in order: smallest IC50 first, largest last. # the answer lists labels in the order requested
III, I, V, IV, II

P = CCn1c(=O)c2[nH]c(-c3ccc(S(=O)(=O)NC4CCN(Cc5ccc(F)cc5)CC4)cc3)cc2n(CC)c1=O
Q = Cn1c(=O)c2[nH]c(-c3ccc(S(=O)(=O)N4CCN(Cc5ccc(Br)cc5)CC4)cc3)cc2n(C)c1=O
Just curious, which one has the larger IC50 reading, P or Q ? Answer with the label corresponding to your selection.
Q

---

Molecular target: Adenosine receptor A2b (Homo sapiens)
Sequence (P29275 whole entry): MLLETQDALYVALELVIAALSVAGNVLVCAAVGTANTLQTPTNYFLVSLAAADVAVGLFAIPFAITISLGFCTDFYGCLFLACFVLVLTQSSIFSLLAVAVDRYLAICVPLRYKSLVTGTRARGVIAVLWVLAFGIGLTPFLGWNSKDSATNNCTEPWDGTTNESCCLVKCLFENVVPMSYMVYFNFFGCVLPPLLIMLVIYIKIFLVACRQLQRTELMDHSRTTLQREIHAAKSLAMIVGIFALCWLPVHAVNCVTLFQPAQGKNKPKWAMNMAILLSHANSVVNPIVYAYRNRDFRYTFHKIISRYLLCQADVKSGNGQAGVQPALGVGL
Experiment: Displacement of [3H]DPCPX from human adenosine A2B receptor expressed in HEK293 cells
Readout kind: IC50 (nM)

>>> endpoint_value("CN(C1CCN(Cc2ccccc2)CC1)S(=O)(=O)c1ccc(-c2cc3c([nH]2)c(=O)n(C)c(=O)n3C)cc1")
90
>>> endpoint_value("CCCn1c(=O)c2[nH]c(-c3ccc(S(=O)(=O)N4CCN(Cc5ccc(C#N)cc5)CC4)cc3)cc2n(C)c1=O")
6
>>> endpoint_value("Cn1c(=O)c2[nH]c(-c3ccc(S(=O)(=O)NC4CCN(Cc5ccccc5)CC4)cc3)cc2n(C)c1=O")
43
>>> endpoint_value("CCCn1c(=O)c2[nH]c(-c3ccc(S(=O)(=O)NCc4ccc(OC)cn4)cc3)cc2n(C)c1=O")
15
>>> endpoint_value("Cn1c(=O)c2[nH]c(-c3ccc(S(=O)(=O)N4CCN(Cc5ccc(F)cc5)CC4)cc3)cc2n(C)c1=O")
10
>>> endpoint_value("CCCn1c(=O)n(C)c(=O)c2[nH]c(-c3ccc(S(=O)(=O)N4CCN(Cc5ccc6c(c5)OCO6)CC4)cc3)cc21")
13

a = CCn1c(=O)c2[nH]c(-c3ccc(S(=O)(=O)N4CCN(Cc5cccc(F)c5)CC4)cc3)cc2n(CC)c1=O
b = Cn1c(=O)c2[nH]c(-c3ccc(S(=O)(=O)N4CCN(Cc5ccc(F)cc5F)CC4)cc3)cc2n(C)c1=O
Just curious, which one has the larger IC50 reading, a or b ? Answer with the label corresponding to your selection.
a
(a: 15 nM, b: 7 nM)

---

Target: Adenosine receptor A1 (Homo sapiens, UniProt P30542)
Sequence (P30542 whole entry): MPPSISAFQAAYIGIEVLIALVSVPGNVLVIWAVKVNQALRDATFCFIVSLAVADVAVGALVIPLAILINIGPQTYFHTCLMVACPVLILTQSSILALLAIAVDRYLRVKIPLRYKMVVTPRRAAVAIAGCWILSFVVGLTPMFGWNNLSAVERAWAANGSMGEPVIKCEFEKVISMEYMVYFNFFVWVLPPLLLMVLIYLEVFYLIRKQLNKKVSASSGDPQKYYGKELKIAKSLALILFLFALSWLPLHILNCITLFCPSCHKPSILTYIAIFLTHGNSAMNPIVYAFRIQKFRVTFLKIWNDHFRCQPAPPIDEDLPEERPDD
Experiment: Displacement of [3H]DPCPX from human adenosine A1 receptor expressed in CHO cells
pIC50: −log10 of the molar value.
Readout kind: pIC50

>>> endpoint_value("CCCn1c(=O)c2[nH]c(-c3ccc(S(=O)(=O)N4CCN(Cc5ccc(C#N)cc5)CC4)cc3)cc2n(C)c1=O")
6.43
>>> endpoint_value("CCCn1c(=O)n(C)c(=O)c2[nH]c(-c3ccc(S(=O)(=O)N4CCN(Cc5ccc6c(c5)OCO6)CC4)cc3)cc21")
6.99
>>> endpoint_value("COc1ccc(NS(=O)(=O)c2ccc(-c3cc4c([nH]3)c(=O)n(C)c(=O)n4C)cc2)cn1")
7.27

I = CCn1c(=O)c2[nH]c(-c3ccc(S(=O)(=O)NCCc4ccccn4)cc3)cc2n(CC)c1=O
II = CCn1c(=O)c2[nH]c(-c3ccc(S(=O)(=O)N4CCN(Cc5cccc(F)c5)CC4)cc3)cc2n(CC)c1=O
# min-compare on pIC50 between I and II Answer with the label corresponding to your selection.
II

---

experiment: Solubility of the compound; assay type: physicochemical
Readout kind: solubility

>>> endpoint_value("Cn1c(=O)c2[nH]c(-c3ccc(OCC(=O)Nc4ccc(Br)cc4)cc3)cc2n(C)c1=O")
"< 10 µg/mL"

Below: the item to evaluate.
Find the recorded solubility belonging to Cn1c(=O)c2[nH]c(-c3ccc(S(=O)(=O)N4CCN(c5ccccc5)CC4)cc3)cc2n(C)c1=O and report it.
< 10 µg/mL

---

assay: Tmax in rat at 10 mg/kg, po; format: ADME, organism-based; parameters: dose 10 mg/kg, route oral; conditions: in vivo
Readout kind: Tmax (h)

>>> endpoint_value("Cn1c(=O)c2[nH]c(-c3ccc(S(=O)(=O)NCCc4ccccn4)cc3)cc2n(C)c1=O")
6
>>> endpoint_value("Cn1c(=O)c2[nH]c(-c3ccc(S(=O)(=O)N4CCN(Cc5ccccc5)CC4)cc3)cc2n(C)c1=O")
6

---

Biological target: UniProtKB P29275
Sequence (P29275 whole entry): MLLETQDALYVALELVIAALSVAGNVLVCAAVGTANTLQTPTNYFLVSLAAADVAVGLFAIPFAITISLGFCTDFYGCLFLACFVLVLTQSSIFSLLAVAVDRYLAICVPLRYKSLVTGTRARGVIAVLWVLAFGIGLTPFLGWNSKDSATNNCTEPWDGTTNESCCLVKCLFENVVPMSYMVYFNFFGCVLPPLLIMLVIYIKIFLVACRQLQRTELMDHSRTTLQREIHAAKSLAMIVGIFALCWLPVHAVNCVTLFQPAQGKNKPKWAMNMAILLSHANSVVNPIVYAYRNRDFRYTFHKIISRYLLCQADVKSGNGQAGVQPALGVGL
Experiment: Displacement of [3H]DPCPX from human adenosine A2B receptor expressed in HEK293 cells
Readout kind: IC50 (nM)

Illustrative cases are given below, each with its answer.
>>> endpoint_value("CCn1c(=O)c2[nH]c(-c3ccc(S(=O)(=O)NCCc4ccccn4)cc3)cc2n(CC)c1=O")
75
>>> endpoint_value("CCCn1c(=O)c2[nH]c(-c3ccc(S(=O)(=O)NC4CCN(Cc5ccccc5)CC4)cc3)cc2n(CCC)c1=O")
18
>>> endpoint_value("COc1ccc(CNS(=O)(=O)c2ccc(-c3cc4c([nH]3)c(=O)n(C)c(=O)n4C)cc2)nc1")
20
>>> endpoint_value("CCn1c(=O)c2[nH]c(-c3ccc(S(=O)(=O)NC4CCN(Cc5ccc(F)cc5)CC4)cc3)cc2n(CC)c1=O")
12

1 = CCCn1c(=O)n(C)c(=O)c2[nH]c(-c3ccc(S(=O)(=O)N4CCN(Cc5cccc(F)c5)CC4)cc3)cc21
2 = Cn1c(=O)c2[nH]c(-c3ccc(S(=O)(=O)N4CCN(c5ccccc5)CC4)cc3)cc2n(C)c1=O
3 = Cn1c(=O)c2[nH]c(-c3ccc(S(=O)(=O)N4CCN(Cc5ccc(Br)cc5)CC4)cc3)cc2n(C)c1=O
4 = Cn1c(=O)c2[nH]c(-c3ccc(S(=O)(=O)N4CCN(Cc5ccncc5)CC4)cc3)cc2n(C)c1=O
Put these in order: smallest IC50 first, largest last. # the answer lists labels in the order requested
3, 2, 1, 4
